- Assay Notes: Mouse Pharmacokinetic Studies (50 mg/kg oral gavage, plasma LC-MS/MS)
- Assay type: in vivo
- Conditions: male C57BL/6 mice, non-fasted, 50 mg/kg
Reported Property: TBC

*Q* Which TBC reading was recorded for the compound Cc1c(F)cccc1CNC1=NS(=O)(=O)c2ccc(F)c(C(C)c3ccccc3F)c2N1 (single isomer, unassigned) [Compound 10-3A] ?
*A* 4.3 mL/min/kg

*Q* Which TBC reading was recorded for the compound CC(c1ccccc1F)c1c(F)ccc2c1NC(NCc1cccc(F)n1)=NS2(=O)=O (single isomer, unassigned) [Compound 10-2B] ?
*A* 27 mL/min/kg

*Q* Which TBC reading was recorded for the compound CC(c1ccccc1F)c1c(F)ccc2c1NC(NCc1cccc(F)c1)=NS2(=O)=O (single isomer, unassigned) [Compound 10-5A] ?
*A* 50 mL/min/kg

*Q* Which TBC reading was recorded for the compound CC(c1ccccc1F)c1c(F)ccc2c1NC(NCc1ncccc1F)=NS2(=O)=O (single isomer, unassigned) [Compound 10-1A] ?
*A* 26 mL/min/kg

*Q* Which TBC reading was recorded for the compound CC(c1ccccc1F)c1c(F)ccc2c1NC(NCc1cccc(F)c1)=NS2(=O)=O (single isomer, unassigned) [Compound 10-5B] ?
*A* 12 mL/min/kg

*Q* Which TBC reading was recorded for the compound CC(c1ccc(F)cc1)c1c(F)ccc2c1NC(NCc1ncccc1F)=NS2(=O)=O (single isomer, unassigned) [Compound 10-4A] ?
*A* 11 mL/min/kg

*Q* Which TBC reading was recorded for the compound Cc1c(F)cccc1CNC1=NS(=O)(=O)c2ccc(F)c(C(C)c3ccccc3F)c2N1 (single isomer, unassigned) [Compound 10-3B] ?
*A* 41 mL/min/kg

*Q* Which TBC reading was recorded for the compound CC(c1ccc(F)cc1)c1c(F)ccc2c1NC(NCc1ncccc1F)=NS2(=O)=O (single isomer, unassigned) [Compound 10-4B] ?
*A* 12 mL/min/kg

*Q* Which TBC reading was recorded for the compound CC(c1ccccc1F)c1c(F)ccc2c1NC(NCc1ncccc1F)=NS2(=O)=O (single isomer, unassigned) [Compound 10-1B] ?
*A* 9 mL/min/kg

*Q* Which TBC reading was recorded for the compound CC(c1ccccc1F)c1c(F)ccc2c1NC(NCc1cccc(F)n1)=NS2(=O)=O (single isomer, unassigned) [Compound 10-2A] ?
*A* 30 mL/min/kg
